This collection of values is drawn from patent US20210040232A1.

assaySystem: T1, human CTLA-4 (amino acids M1-N223) on stably transfected VI-fibroblast cells (human, UniProt P16410 36-223)
T1 construct: also called VI-fibroblast/hCTLA-4
T1 sequence (P16410 36-223 limits assumed): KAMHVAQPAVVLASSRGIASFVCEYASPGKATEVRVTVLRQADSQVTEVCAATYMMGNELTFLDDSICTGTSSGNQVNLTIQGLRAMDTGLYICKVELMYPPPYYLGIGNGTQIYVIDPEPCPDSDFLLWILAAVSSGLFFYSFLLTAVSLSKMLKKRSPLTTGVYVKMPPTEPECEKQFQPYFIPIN
procedureDetails: ECL cell binding, VI-fibroblast/hCTLA-4 cells;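 note: antibodies bound to the cells on carbon electrode plates, detected via SULFO-TAG anti-IgG secondary (1 h, RT), electrochemiluminescence read as RLU over a concentration range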
This section presents binders with their documented ratio of RLU signal to parental VI-fibroblast at 0.6 nM Ab values.
Write down the value, and be sure its unit follows.

These solved cases illustrate the format of a correct answer.
{"binder": "H2M20369N (antibody, mouse IgG2, V domains shown, hybridoma antibody, human variable domains, mouse IgG2 Fc (H2M)) VH: QVQLVQSGTEVKRPGASVKVSCKASGFTFTGYYIYWVRQAPGEGLEWMGWINPHSGGTKYAQKFQGRVTLTRDTSINTAYLDLISLRSDDTAVYYCARIGGGGYSSYFDYWGQGTLVTVSS VL: DIQLTQSPSSLSASVGDRVTITCRASQTISTYLNWYQQKPGNAPKLLIYAASSLQSGVPSRFSGRGSGTDFTLTISSLQPEDFATYYCQQGYTTPPITFGQGTRLEIK", "measuredValue": "18 ratio"}
{"binder": "H2M20373N (antibody, mouse IgG2, V domains shown, hybridoma antibody, human variable domains, mouse IgG2 Fc (H2M)) VH: EVQLLESGGGLVQPGGSLRLSCAASGFTFSSYAMSWVRQAPGKGLEWVSDISGSGLSTYYADSVKGRFAISRDNSKNMLYLQMNRLRAEDTAVYYCAKEPSHWNGEAFDIWGQGTMVTVSS VL: DIQMTQSPSSVSASVGDRVTITCRASQDISSWLAWYQQKPGKAPKLLIYTTANLQSGVPSRFSGSGSGTDFTLTISSLQSEDFATYYCQQANSFPFTFGSGTKVDIK", "measuredValue": "22 ratio"}

// next entry
The binder H2M20361N (antibody, mouse IgG2, V domains shown, hybridoma antibody, human variable domains, mouse IgG2 Fc (H2M)) VH: QVQLQESGPGLVKPSQTLSLTCTVSGGSINNGGHYWTWIRQHPGKGLEWIGYIYYIGTTYYNPSLESRLSLSVDTSKNQFSLKLSSVTAADTAIYYCARSSLSVSEAFDVWGQGTMVTVSS VL: DIQMTQSPSSLSASVGDRITITCRGSQNIGSFLSWYQQRPGKAPKLLIFGAYNLQGGVPSRFSGSGSGTDFTLTISSLQPEDFATYFCQQSYSTPPITFGQGTRLEIK showed ratio of RLU signal to parental VI-fibroblast at 0.6 nM Ab equal to 19 ratio
